System: c-Abl (mouse)
protocolSummary: phosphorylation enrichment, bacterial display (enrichment ratio); higher = better substrate or ligand; peptides without Tyr show the background
measureName: phosphorylation enrichment

monomersequence="DVFRQYASLTG [GANAB_Y379]" observedmeasurement=0.573
monomersequence="ESAAIYNPVIF [RHO_Y301_K296E_YF]" observedmeasurement=1.28
monomersequence="FDEFRYRSFIK [CFTR_Y517_V520F_YF]" observedmeasurement=0.454
monomersequence="TVINKYQGKLF [HGD_Y249]" observedmeasurement=0.513
monomersequence="LVKDGYQMAQP [CSF1R_Y873]" observedmeasurement=0.691

Record phosphorylation enrichment for all entries; do not skip any.
1. KNKNRSKNILP [PTPN11_Y279_Y279S]
2. IKKFKYGIEEH [GJA1_Y137]

0.771
0.498

###

Kindly state phosphorylation enrichment for each of the entries shown.
experimentalTarget: EPHB1 (UniProt P54762)
Sequence (P54762 whole entry, looked up): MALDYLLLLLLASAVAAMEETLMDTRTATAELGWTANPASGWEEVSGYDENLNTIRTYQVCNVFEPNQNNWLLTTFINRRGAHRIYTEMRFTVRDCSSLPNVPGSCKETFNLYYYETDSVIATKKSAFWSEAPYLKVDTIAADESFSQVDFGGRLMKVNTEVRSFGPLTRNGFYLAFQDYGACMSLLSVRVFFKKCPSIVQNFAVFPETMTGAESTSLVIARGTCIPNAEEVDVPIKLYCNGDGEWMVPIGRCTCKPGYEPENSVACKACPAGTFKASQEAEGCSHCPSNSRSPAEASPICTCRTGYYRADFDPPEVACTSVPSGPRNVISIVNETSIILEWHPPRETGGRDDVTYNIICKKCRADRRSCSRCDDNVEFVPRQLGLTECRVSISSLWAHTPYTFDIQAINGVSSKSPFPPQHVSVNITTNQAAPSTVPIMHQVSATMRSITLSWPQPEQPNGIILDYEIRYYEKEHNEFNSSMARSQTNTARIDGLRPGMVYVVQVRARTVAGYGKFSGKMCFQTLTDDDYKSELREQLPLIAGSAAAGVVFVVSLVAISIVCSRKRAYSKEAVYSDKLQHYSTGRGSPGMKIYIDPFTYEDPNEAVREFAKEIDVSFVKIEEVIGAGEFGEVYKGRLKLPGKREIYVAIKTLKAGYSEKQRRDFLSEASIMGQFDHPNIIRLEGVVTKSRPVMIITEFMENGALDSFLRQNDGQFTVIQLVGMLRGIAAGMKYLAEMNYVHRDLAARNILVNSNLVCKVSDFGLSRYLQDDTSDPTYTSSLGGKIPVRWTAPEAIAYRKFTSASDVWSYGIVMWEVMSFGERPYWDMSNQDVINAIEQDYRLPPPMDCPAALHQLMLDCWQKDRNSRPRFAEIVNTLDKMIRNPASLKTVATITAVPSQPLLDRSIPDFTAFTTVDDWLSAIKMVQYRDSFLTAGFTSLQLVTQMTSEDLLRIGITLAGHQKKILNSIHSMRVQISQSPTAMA
protocolSummary: phosphorylation enrichment, bacterial display (enrichment ratio); higher = better substrate or ligand; peptides without Tyr show the background

Some solved entries appear below for comparison.
monomersequence="AEDKPYAELWT [MPI_Y46_M51T]" observedmeasurement=0.689
monomersequence="LEDDVYRKTCT [XPA_Y257_M256V]" observedmeasurement=1.14
monomersequence="RGNMFYENSFA [EGFR_Y113_YF]" observedmeasurement=0.483
monomersequence="SKAYAYVHFDS [PABPC5_Y149_G146A]" observedmeasurement=0.549
monomersequence="WFPSTYVEEDE [VAV3_Y842]" observedmeasurement=0.789

Record phosphorylation enrichment for all entries; do not skip any.
1. IEKLPYIDKWF [CPS1_Y872_T871P]
2. QRKRAYVEIEY [MAK16_Y282]
3. MSRDVYSIDYY [NTRK2_Y702_T704I]

0.472
0.362
1.47

Record phosphorylation enrichment for all entries; do not skip any.
1. VGNPAYRSFSN [IL4R_Y497_A492V]
2. CITIHYNFMCN [TP53_Y234_T230I_YF]
3. WEQELYSQLVF [WAS_Y102_YF]
4. RRLEPYGENFN [APOA4_Y310_V307L]

1. 0.368
2. 0.59
3. 8.61
4. 0.398

Record phosphorylation enrichment for all entries; do not skip any.
1. VNTTLYEKFTF [TEK_Y1108_YF]
2. SRGSSYSSIPK [FLNC_Y2625]
3. GEHSIYSTVNN [CD55_Y266_C267S]
4. IYHLSYIHNCE [PDE6B_Y227_L228I]

[1.1, 0.304, 9.99, 0.783]

Record phosphorylation enrichment for all entries; do not skip any.
1. WPQKLYNNFVN [MYO5C_Y526_L522P]
2. EARRVYRDIIH [ALDH5A1_Y175_G176R]
3. HFVDEYDLTIE [KRAS_Y32_P34L]
4. TTKAKYKTPIY [PLD2_Y573_T577I]

0.407
0.318
0.711
0.542

###

Kindly state SH2 binding enrichment for each of the entries shown.
experimentalTarget: SHP2-C SH2;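 also: peptide library displayed on the E. coli surface as eCPX fusions, selected cells deep-sequenced, score is each peptide's frequency after selection divided by its frequency in the input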
protocolSummary: SH2 binding enrichment of the phosphorylated peptide, bacterial display (enrichment ratio); higher = better substrate or ligand; peptides without Tyr show the background
Numbers only.

monomersequence="FKELVYETVRV [FSHB_Y76]" measurename="SH2 binding enrichment" observedmeasurement=0.961
monomersequence=DLHGIYQKLVI measurename="SH2 binding enrichment" observedmeasurement=0.822
monomersequence="RMDGKYACSYT [FLNB_Y704_T703K]" measurename="SH2 binding enrichment" observedmeasurement=0.863
monomersequence="PMQLPHDSTWE [PDGFRB_Y589_Y589H]" measurename="SH2 binding enrichment" observedmeasurement=0.555
monomersequence="REQREYLDQLN [CCDC88B_Y1277]" measurename="SH2 binding enrichment" observedmeasurement=0.47
monomersequence="APQFTYAQGGQ [FLNA_Y1763_YF]" measurename="SH2 binding enrichment" observedmeasurement=0.611
monomersequence="LYSDHYSPSGR [TMPRSS12_Y23]" measurename="SH2 binding enrichment" observedmeasurement=0.544
monomersequence="ATHSGYRLNDY [CLDN14_Y233]" measurename="SH2 binding enrichment" observedmeasurement=0.623

Record SH2 binding enrichment for all entries; do not skip any.
1. NFRTTYVNANE [KCNH2_Y475]
2. LSDVIYVILRK [PMP22_Y153_G150D]
3. TTKGSYSLFVR [HCK_Y180_S183Y_YF]
4. VDDQIYFFRKP [PBRM1_Y1289_E1287Q_YF]
5. WVYNHYRCIIW [BRCA2_Y2624_W2626C]
6. NQILPYIKELV [PPP2R1B_Y341]
7. APEVIYATPGA [ABLtide_2014]
8. HICTAYELVLA [DHCR24_Y190]

1: 1.48; 2: 1.31; 3: 0.837; 4: 0.669; 5: 1; 6: 0.684; 7: 0.672; 8: 0.708

Record SH2 binding enrichment for all entries; do not skip any.
1. TRDVNYGWIIR [MT-CYB_Y75]
2. LYDPDYMKVIL [CYP4A22_Y104]
3. CHKRTYKVTGL
4. GTQCSYLLSRK [UGT3A1_Y123]
5. TTSQLYDAMPI [PDPK1_Y9_V12M]
6. IPGMEYLVSII [TNC_Y1775_V1773M]
7. KTGNIYRTEFG [MRPL3_Y265_M261T_YF]
8. LLILEYAKFGS [RET_Y806_V804L_YF]

1.28
0.73
0.898
0.833
0.417
1.15
0.871
1.76

Record SH2 binding enrichment for all entries; do not skip any.
1. SQKRKYIEIDS [SDAD1_Y580]
2. EYKDAYTFAAD [BRDT_Y335_K336T]
3. ALECLYRREKR [TEKT5_Y195_H196R]
4. IYHLSYIHNCE [PDE6B_Y227_L228I]
5. LCHELYNTIRD [PBRM1_Y54_V49L]

[1.04, 0.727, 0.551, 1.27, 1.04]
